molecular target: C-C chemokine receptor type 3 (Homo sapiens); experiment: In vitro inhibition if C-C chemokine receptor type 3 (CCR3) using 150p M [125I]-labeled human eotaxin
endpoint: IC50

For orientation, consider the following solved cases.
>  <compound>
Cn1nnnc1-c1cccc(NC(=O)NCCCN2CCC(Cc3ccc(F)cc3)CC2)c1

>  <experimental_target>
C-C chemokine receptor type 3 (Homo sapiens)

>  <IC50>
5 nM

$$$$
>  <compound>
N#Cc1cccc(NC(=O)NCCCN2CCC(Cc3ccccc3)CC2)c1

>  <experimental_target>
C-C chemokine receptor type 3 (Homo sapiens)

>  <IC50>
200 nM

$$$$
>  <compound>
CC[C@@H](O)[C@H]1C[C@@H](Cc2ccccc2)CCN1CCCNC(=O)Nc1cccc(C(C)=O)c1

>  <experimental_target>
C-C chemokine receptor type 3 (Homo sapiens)

>  <IC50>
50 nM

$$$$
>  <compound>
O=C(NCCCN1CCC(Cc2ccc(F)cc2)CC1)Nc1cccc(-c2ncc[nH]2)c1

>  <experimental_target>
C-C chemokine receptor type 3 (Homo sapiens)

>  <IC50>
100 nM

$$$$
>  <compound>
COc1cccc(NC(=O)N2CCN(C(=O)OC(C)(C)C)C(CN3CCC(Cc4ccc(F)cc4)CC3)C2)c1 (racemic)

>  <experimental_target>
C-C chemokine receptor type 3 (Homo sapiens)

>  <IC50>
40 nM

$$$$

Report IC50 for each item below.
1. COc1cccc(NC(=O)N2CCCC(CN3CCC(Cc4ccccc4)CC3)C2)c1 (racemic)
2. CC(=O)c1cccc(NC(=O)NCCCN2CC[C@H](Cc3ccccc3)C[C@@H]2Cc2ccccc2)c1
3. CC(=O)c1cccc(NC(=O)NCCCN2CCC(Cc3ccc(F)cc3)CC2)c1
4. O=C(NCCCCN1CCC(Cc2ccccc2)CC1)c1ccccc1

1: 330 nM; 2: 200 nM; 3: 10 nM; 4: 800 nM

----------
target: UniProtKB P51677; experiment: In vitro inhibition if C-C chemokine receptor type 3 (CCR3) using 150p M [125I]-labeled human eotaxin
Field 'label' (enum: Fulfilled / Not fulfilled). Set to Fulfilled when IC50 is strictly under 100 nM; else Not fulfilled.

>  <compound>
COc1cccc(NC(=O)N2CCC(N3CCC(Cc4ccccc4)CC3)CC2)c1

>  <experimental_target>
UniProtKB P51677

>  <assigned_class>
Not fulfilled

$$$$
>  <compound>
O=C(NCCCN1CCC(Cc2ccc(F)cc2)CC1)Nc1cccc(C(F)(F)F)c1

>  <experimental_target>
UniProtKB P51677

>  <assigned_class>
Fulfilled

$$$$
>  <compound>
O=C(NCCCN1CCC(Cc2ccc(F)cc2)CC1)Nc1cccc(-c2cccs2)c1

>  <experimental_target>
UniProtKB P51677

>  <assigned_class>
Not fulfilled

$$$$
>  <compound>
O=C(NCCN1CC[C@@H]2[C@H](C1)c1cccc3c1N2CC3)c1ccc(F)cc1

>  <experimental_target>
UniProtKB P51677

>  <assigned_class>
Not fulfilled

$$$$
>  <compound>
COc1cccc(NC(=O)NCCCN2CCC(Cc3ccccc3)CC2)c1

>  <experimental_target>
UniProtKB P51677

>  <assigned_class>
Not fulfilled

$$$$
>  <compound>
CCCC[C@H](O)[C@H]1C[C@@H](Cc2ccccc2)CCN1CCCNC(=O)Nc1cccc(C(C)=O)c1 (stereo in doubt; form 2)

>  <experimental_target>
UniProtKB P51677

>  <assigned_class>
Fulfilled

$$$$
>  <compound>
O=C(NCCCN1CCC(Cc2ccc(F)cc2)CC1)Nc1cccc([N+](=O)[O-])c1

>  <experimental_target>
UniProtKB P51677

>  <assigned_class>
Fulfilled

$$$$

Now for another entry.
For N#Cc1cccc(NC(=O)NCCCN2CC[C@@H]3[C@H](C2)c2cccc4c2N3CC4)c1 , is the recorded IC50 below the cut-off of 100 nM?
Not fulfilled

----------
Biological target: C-C chemokine receptor type 3 (Homo sapiens)
Sequence (P51677 whole entry): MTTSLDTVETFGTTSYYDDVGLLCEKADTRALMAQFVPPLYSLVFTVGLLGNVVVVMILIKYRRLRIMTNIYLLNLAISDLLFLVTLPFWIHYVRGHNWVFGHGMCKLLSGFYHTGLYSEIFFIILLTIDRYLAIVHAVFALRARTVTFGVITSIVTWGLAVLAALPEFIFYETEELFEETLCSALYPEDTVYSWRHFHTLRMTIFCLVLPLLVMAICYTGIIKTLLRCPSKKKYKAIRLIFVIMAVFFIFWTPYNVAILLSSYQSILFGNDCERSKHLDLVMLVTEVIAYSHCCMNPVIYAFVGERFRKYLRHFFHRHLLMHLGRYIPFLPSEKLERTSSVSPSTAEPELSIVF
Assay: In vitro inhibition if C-C chemokine receptor type 3 (CCR3) using 150p M [125I]-labeled human eotaxin
Consider the following compounds; for each one, report its log10 IC50.
Values are log10 of IC50 in nM.

Report log10 IC50 for each item below.
1. COc1cccc(NC(=O)N2CCO[C@H](CN3CCC(Cc4ccc(F)cc4)CC3)C2)c1
2. CC(=O)c1cccc(NC(=O)NCCCN2CC[C@H](Cc3ccccc3)C[C@@H]2C(C)(O)O)c1
3. CCC[C@H]1C[C@@H](Cc2ccccc2)CCN1CCCNC(=O)Nc1cccc(C(C)=O)c1 (stereo in doubt)
4. O=C(NCCCCN1CC[C@@H]2[C@H](C1)c1cccc3c1N2CC3)C1CCCCC1
5. CSc1ccc(NC(=O)NCCCN2CCC(Cc3ccc(F)cc3)CC2)cc1
6. CC(C)(C)C(=O)NCCCCN1CC[C@@H]2[C@H](C1)c1cccc3c1N2CC3
7. CC(=O)c1cccc(NC(=O)NCCCN2CC[C@H](Cc3ccccc3)C[C@@H]2[C@H](O)CC(C)C)c1

1.48
1.70
2.30
4.04
1.60
4.41
1.78

----------
biological target: C-C chemokine receptor type 3 (Homo sapiens); experiment: In vitro inhibition if C-C chemokine receptor type 3 (CCR3) using 150p M [125I]-labeled human eotaxin
Field 'label' (enum: true (1) / false (0)). Set to true (1) when IC50 is strictly under 100 nM; else false (0).

For orientation, consider the following solved cases.
>  <compound>
COc1cccc(NC(=O)N2CCO[C@@H](CN3CCC(Cc4ccc(F)cc4)CC3)C2)c1

>  <assigned_class>
false (0)

$$$$
>  <compound>
N#Cc1cccc(NC(=O)NCCCN2CCC(Cc3ccc(Cl)cc3)CC2)c1

>  <assigned_class>
true (1)

$$$$
>  <compound>
CC(=O)c1cccc(NC(=O)NCCCN2CC[C@H](Cc3ccccc3)C[C@@H]2[C@@H](O)CC(C)C)c1

>  <assigned_class>
true (1)

$$$$
>  <compound>
COc1cccc(C(=O)NCCCCN2CCC(Cc3ccccc3)CC2)c1

>  <assigned_class>
false (0)

$$$$
>  <compound>
O=C(NCCCN1CCC(Cc2ccccc2)CC1)Nc1ccc(C(F)(F)F)cc1

>  <assigned_class>
false (0)

$$$$

For O=C(NCCCN1CC[C@@H]2[C@H](C1)c1cccc3c1N2CC3)c1ccc(F)cc1 , is the recorded IC50 below the cut-off of 100 nM?
false (0)

For CCCC[C@H](O)[C@H]1C[C@@H](Cc2ccccc2)CCN1CCCNC(=O)Nc1cccc(C(C)=O)c1 (stereo in doubt; form 1) , is the recorded IC50 below the cut-off of 100 nM?
true (1)

For N#Cc1cccc(NC(=O)NCCCN2CCC(Cc3ccc(F)cc3)CC2)c1 , is the recorded IC50 below the cut-off of 100 nM?
true (1)

For N#Cc1ccc(NC(=O)NCCCN2CCC(Cc3ccc(F)cc3)CC2)cc1 , is the recorded IC50 below the cut-off of 100 nM?
true (1)

----------
Consider the following molecules; for each one, report its IC50.
molecular target: C-C chemokine receptor type 3 (Homo sapiens, UniProt P51677); test: In vitro inhibition if C-C chemokine receptor type 3 (CCR3) using 150p M [125I]-labeled human eotaxin
One number for each entry, in nM.

>  <molecule>
O=C(NCCCN1CCC(Cc2ccc(F)cc2)CC1)NC12CC3CC(CC(C3)C1)C2

>  <endpoint>
IC50

>  <readout_value>
90

$$$$

Report IC50 for each item below.
1. O=C(NCCCN1CCC(Cc2ccc(F)cc2)CC1)NCCc1ccccc1
2. COc1cccc(NC(=O)N2CCC(CN3CCC(Cc4ccc(F)cc4)CC3)C2)c1 (racemic)
3. CCCC[C@H](O)[C@H]1C[C@@H](Cc2ccc(F)cc2)CCN1CCCNC(=O)Nc1cccc(C(C)=O)c1
4. COc1cccc(NC(=O)NCCCN2CCC(Cc3ccc(F)cc3)CC2)c1
5. CCC[C@H](O)[C@H]1C[C@@H](Cc2ccccc2)CCN1CCCNC(=O)Nc1cccc(C(C)=O)c1

[300, 240, 5, 30, 7]

----------
target: UniProt P51677; assay: In vitro inhibition if C-C chemokine receptor type 3 (CCR3) using 150p M [125I]-labeled human eotaxin
Field 'label' (enum: label 1 / label 0). Set to label 1 when IC50 is strictly under 0.2 µM; else label 0.

For orientation, consider the following solved cases.
>  <molecule>
CCC[C@H]1C[C@@H](Cc2ccccc2)CCN1CCCNC(=O)Nc1cccc(C(C)=O)c1 (stereo in doubt; 79)

>  <assigned_class>
label 1

$$$$
>  <molecule>
CN(C)c1ccc(NC(=O)NCCCN2CCC(Cc3ccccc3)CC2)cc1

>  <assigned_class>
label 0

$$$$
>  <molecule>
COc1cccc(NC(=O)N2CCCCC2CN2CCC(Cc3ccc(F)cc3)CC2)c1 (racemic)

>  <assigned_class>
label 1

$$$$
>  <molecule>
O=C(NCCCN1CCC(Cc2ccccc2)CC1)Nc1ccccc1

>  <assigned_class>
label 0

$$$$

For CS(=O)(=O)c1cccc(NC(=O)NCCCN2CCC(Cc3ccc(F)cc3)CC2)c1 , is the recorded IC50 below the cut-off of 0.2 µM?
label 1

For O=C(NCCCN1CCC(Cc2ccc(F)cc2)CC1)NC1CCCCC1 , is the recorded IC50 below the cut-off of 0.2 µM?
label 1

For O=C(NCCCN1CCC(Cc2ccc(F)cc2)CC1)Nc1ccc([N+](=O)[O-])cc1 , is the recorded IC50 below the cut-off of 0.2 µM?
label 1

For CC[C@H](O)[C@H]1C[C@@H](Cc2ccccc2)CCN1CCCNC(=O)Nc1cccc(C(C)=O)c1 (stereo in doubt; 85) , is the recorded IC50 below the cut-off of 0.2 µM?
label 1

For O=C(NCCCCN1CC[C@@H]2[C@H](C1)c1cccc3c1N2CC3)c1ccc(F)cc1 , is the recorded IC50 below the cut-off of 0.2 µM?
label 0
